Sourced from patent US7745450B2

molecular target: IκB-α kinase; experiment: IκB-α kinase inhibition, in vitro kinase assay; type: biochemical
pIC50: −log10 of the molar value.
Output T for pIC50 not less than 8; output F otherwise.

molecule=COc1ccc(CNc2nc(N[C@@H](CO)C(C)C)nc3c(C(C)C)n[nH]c23)c(O)c1O discrete_label=T
molecule="Cc1n[nH]c2c(NCc3ccccc3)nc(NC3CCCCC3N)nc12 (stereo not drawn)" discrete_label=F
molecule=Cc1n[nH]c2c(Nc3ccc(Cl)cc3)nc(NCCO)nc12 discrete_label=F
molecule=Cc1n[nH]c2c(NCc3ccccc3)nc(NCCCO)nc12 discrete_label=F
molecule=CC[C@H](CO)Nc1nc(Nc2ccccc2)c2[nH]nc(C(C)C)c2n1 discrete_label=F
molecule=CC[C@H](CO)Nc1nc(NCc2ccccc2OC(C)=O)c2[nH]nc(C(C)C)c2n1 discrete_label=F
molecule=CC[C@H](CO)Nc1nc(NCc2ccc(Cl)c(N)c2)c2[nH]nc(C(C)C)c2n1 discrete_label=F
molecule=Cc1n[nH]c2c(NCc3ccc(O)c(O)c3)nc(NCCO)nc12 discrete_label=F
molecule=Cc1cccc(CNc2nc(N[C@@H](CO)C(C)C)nc3c(C(C)C)n[nH]c23)c1O discrete_label=T
molecule=CC(C)c1n[nH]c2c(Nc3ccc(Cl)c(C(=O)O)c3)nc(N[C@@H](CO)C(C)C)nc12 discrete_label=T
molecule=CC[C@H](CO)Nc1nc(N(C)CCc2ccc(O)c(O)c2)c2[nH]nc(C(C)C)c2n1 discrete_label=F
molecule=CC[C@H](CO)Nc1nc(Nc2ccc(C(=O)O)c(Cl)c2)c2[nH]nc(C(C)C)c2n1 discrete_label=T
molecule=Cc1n[nH]c2c(Nc3cc(N)cc(Cl)c3)nc(NCCO)nc12 discrete_label=F
molecule=Cc1n[nH]c2c(Nc3ccc(N)c(Cl)c3)nc(NCCO)nc12 discrete_label=F
molecule=CC[C@H](CO)Nc1nc(Nc2ccc(O)c(C(=O)O)c2)c2[nH]nc(C(C)C)c2n1 discrete_label=F
molecule=CC[C@H](CO)Nc1nc(NCc2ccccc2)c2[nH]nc(C(C)C)c2n1 discrete_label=F
